Target: MK2 (Homo sapiens)
Sequence (P49137 whole entry): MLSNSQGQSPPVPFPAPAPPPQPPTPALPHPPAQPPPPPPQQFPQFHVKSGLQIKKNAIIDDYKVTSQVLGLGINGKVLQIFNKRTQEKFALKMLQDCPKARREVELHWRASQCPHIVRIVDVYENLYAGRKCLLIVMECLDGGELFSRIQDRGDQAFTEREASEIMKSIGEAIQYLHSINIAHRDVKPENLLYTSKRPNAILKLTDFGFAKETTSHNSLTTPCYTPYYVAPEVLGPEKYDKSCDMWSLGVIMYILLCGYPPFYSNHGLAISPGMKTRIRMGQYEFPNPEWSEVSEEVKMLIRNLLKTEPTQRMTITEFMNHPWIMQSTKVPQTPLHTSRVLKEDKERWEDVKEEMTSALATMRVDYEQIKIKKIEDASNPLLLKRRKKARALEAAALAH
Assay: MK2 degradation in human THP-1 monocytic cells (MSD, 24 h)
Type: cell-based
Design: endogenous in cells
Settings: THP-1 cells, read-out: MK2 MSD THP-1 degradation 24 h GMean External Abs DC50
Recorded Endpoint: DC50

query: Dear colleague, I am looking for the recorded DC50 of the following compound: C[C@@H]1CNc2c(sc3ccc4nc(-c5ccc(N6CCN(CC7CN(c8ccc9c(c8)n(C)c(=O)n9C8CCC(=O)NC8=O)C7)CC6)cc5Cl)ccc4c23)C(=O)N1 (stereo partly drawn)
result: < 1 nM

query: What do you have for C[C@@H]1CNc2c(sc3ccc4nc(N5CC6(CCN(C7CCN(c8ccc9c(c8)n(C)c(=O)n9C8CCC(=O)NC8=O)CC7)CC6)C5)ccc4c23)C(=O)N1 (stereo partly drawn) ?
result: > 100 nM

query: What do you have for C[C@@H]1CNc2c(sc3ccc4nc(-c5cc(C#N)cc(N6CCN(CC7CCN(c8ccc9c(c8)n(C)c(=O)n9C8CCC(=O)NC8=O)CC7)CC6)c5)ccc4c23)C(=O)N1 (stereo partly drawn) ?
result: < 1 nM

query: What do you have for C[C@@H]1CNc2c(sc3ccc4nc(-c5cncc(C6CCN(CC7CCN(c8ccc9c(c8)n(C)c(=O)n9C8CCC(=O)NC8=O)CC7)CC6)c5)ccc4c23)C(=O)N1 (stereo partly drawn) ?
result: < 1 nM

query: What do you have for C[C@@H]1CNc2c(sc3ccc4nc(-c5ccc(N6CCC(CN7CCN(c8cccc9c8n(C)c(=O)n9C8CCC(=O)NC8=O)CC7)CC6)cc5F)ccc4c23)C(=O)N1 (stereo partly drawn) ?
result: 1 to 10 nM

query: What do you have for C[C@@H]1CNc2c(sc3ccc4nc(-c5cccc(N6CCN(CCCCCCCCCCc7ccc8c(c7)n(C)c(=O)n8C7CCC(=O)NC7=O)CC6)c5)ccc4c23)C(=O)N1 (stereo partly drawn) ?
result: 10 to 100 nM

query: What do you have for C[C@@H]1CNc2c(sc3ccc4nc(-c5cccc(C#CCCNC(=O)COCCOCCOCCOCCc6ccc7c(c6)n(C)c(=O)n7C6CCC(=O)NC6=O)c5)ccc4c23)C(=O)N1 (stereo partly drawn) ?
result: 1 to 10 nM

query: What do you have for Cn1c(=O)n(C2CCC(=O)NC2=O)c2ccc(N3CC(CN4CCN(c5ccc(-c6cc(-c7cc8c([nH]7)C7(CCCC7)CNC8=O)ccn6)cc5)CC4)C3)cc21 (stereo not drawn) ?
result: < 1 nM

query: What do you have for Cn1c(=O)n(C2CCC(=O)NC2=O)c2ccc(N3CCC(CN4CCN(c5ccc(-c6cc(-c7cc8c([nH]7)C7(CCC7)CNC8=O)ccn6)cc5)CC4)CC3)cc21 (stereo not drawn) ?
result: < 1 nM

All figures here come from patent US20230135894A1.
